The reported numbers originate from the supplement of paper PMC10567573.

Here, each record is paired with measured protein stability index data.
B1: FAM46D (parent)
chain: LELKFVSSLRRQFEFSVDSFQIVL

Variants of: B1
Protocol description: protein stability index of a GFP-peptide fusion (GPS, HEK-293T) (PSI 1-6); higher = more stable;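 note: lentivirally expressed fusions sorted by FACS into six bins by GFP to DsRed ratio, PSI derived from sequencing read proportions per bin multiplied by bin number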
Test conditions: c terminus: a fixed tail appended
The response must contain the number and no unit.

Here are 3 variants together with their reported answers.
>>> result("LELKFVSSLRRQFEFSVDSFQIVN [L24N]")
2.39
>>> result("LMLKFVSSLRRQFEFSVDSFQIVL [E2M]")
2.57
>>> result("LELKFLSSLRRQFEFSVDSFQIVL [V6L]")
2.81

Task: GET /values?readout=protein stability index&item= LELKFVSSLRRQFEFSVGSFQIVL [D18G]
Result: 2.54

Task: Value lookup for protein stability index; key = LELKFVSSLRRQFEFSVDSPQIVL [F20P]
Result: 3.04

Task: What does the data say about its protein stability index? Entry: LELKFVSSLRRQHEFSVDSFQIVL [F13H]
Result: 2.73

Task: Record request: protein stability index value, item LELKFVSSLRRQFEFSVDSWQIVL [F20W]
Result: 3.5

Task: Using the record for LELKFVSSLRRQFEFSVDSFAIVL [Q21A] , report its protein stability index.
Result: 2.85

Task: Dear colleague, I am looking for the recorded protein stability index of the following variant: LELKFVSSLREQFEFSVDSFQIVL [R11E]
Result: 3.47

Task: Recorded protein stability index of LELKFVSSLRRQFEFSHDSFQIVL [V17H] , please.
Result: 3.65

Task: // protein stability index lookup, key: LELKFVSSLRRQFEFSVDSFCIVL [Q21C]
Result: 3.58

Task: I would be grateful if you could share the reported protein stability index for LELKFVSSLRRQFEFSVDSFLIVL [Q21L] .
Result: 2.24

Task: Return reported protein stability index; argument: LELKFVSSLRRQFEISVDSFQIVL [F15I]
Result: 4.07

Task: Recorded protein stability index of LELKFVSSLRWQFEFSVDSFQIVL [R11W] , please.
Result: 4.32

Task: // returns reported protein stability index for input LELHFVSSLRRQFEFSVDSFQIVL [K4H]
Result: 3.46

Task: // lookup protein stability index for RELKFVSSLRRQFEFSVDSFQIVL [L1R]
Result: 2.33

Task: Item LELKFVSSLRRQFEFMVDSFQIVL [S16M] has what recorded protein stability index?
Result: 3.57

Task: # get_value(readout='protein stability index', item= LELKFVSSLVRQFEFSVDSFQIVL [R10V] )
Result: 2.04

Task: Need protein stability index, item LELKFVSSLRRQFEVSVDSFQIVL [F15V]
Result: 4.5

Task: // returns reported protein stability index for input LELKFVSSLRRQFEFSVDSEQIVL [F20E]
Result: 3.3

Task: Would you mind telling me what protein stability index value was observed for LELKFVSSLRRQFETSVDSFQIVL [F15T] ?
Result: 2.43

Task: Please give the measured protein stability index for this variant: LELKFVSSLRRQFEFSVDSFQIHL [V23H]
Result: 2.67

Task: What value of protein stability index has been reported for the following variant? LELKFVSSLRRQFEFTVDSFQIVL [S16T]
Result: 4.1

Task: Report protein stability index for LHLKFVSSLRRQFEFSVDSFQIVL [E2H] please.
Result: 2.95
